These measurements were taken from patent US5753673A.

UniProtKB O70528 measurements of pIC50, listed per entry.
Structures can show the parent of a compound that is named as a salt.
Please treat pIC50 as minus the base-10 logarithm of the molar concentration.

[
  {
    "MOLECULE": "COCCN1[C@@H]2CC[C@H]1C[C@@H](NC(=O)c1cc3ccccc3n(C(C)C)c1=O)C2 [Compound 10, hydrochloride]",
    "pIC50": 7.11
  },
  {
    "MOLECULE": "CCOCCN1C2CCC1CC(NC(=O)c1cc3ccccc3n(C(C)C)c1=O)C2 (stereo not shown)",
    "pIC50": 7.16
  },
  {
    "MOLECULE": "CC(C)n1c(=O)c(C(=O)N[C@H]2C[C@H]3CC[C@@H](C2)N3CCN2CCOCC2)cc2ccccc21",
    "pIC50": 7.11
  }
]

Now look at this one.
Query: # query: pIC50 | item CC(C)n1c(=O)c(C(=O)NC2CC3CCC(C2)N3CCCO)cc2ccccc21 (stereo not shown) | system: UniProtKB O70528
Reply: 7.37

====

biological target: serotonin 4 receptor (5-HT4) (Cavia porcellus); construct: from tissue; host or cells: longitudinal muscle strips of guinea pig ileum (Harley guinea pigs); assay: Stimulating activity on serotonin 4 receptor (twitch response in guinea pig ileum); format: cell-based
Sequence (O70528 whole entry): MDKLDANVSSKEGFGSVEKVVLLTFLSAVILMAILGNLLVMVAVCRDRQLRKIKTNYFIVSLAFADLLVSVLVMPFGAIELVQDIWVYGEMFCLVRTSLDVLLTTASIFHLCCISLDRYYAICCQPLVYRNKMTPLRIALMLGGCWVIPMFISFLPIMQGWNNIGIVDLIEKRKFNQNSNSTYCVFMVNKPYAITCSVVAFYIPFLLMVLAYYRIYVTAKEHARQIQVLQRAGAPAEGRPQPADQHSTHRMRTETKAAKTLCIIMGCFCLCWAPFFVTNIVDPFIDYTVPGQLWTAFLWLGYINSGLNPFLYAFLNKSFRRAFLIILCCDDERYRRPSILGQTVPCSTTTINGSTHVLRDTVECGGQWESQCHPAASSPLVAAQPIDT
Structures can show the parent of a compound that is named as a salt.
pEC50 reference
Please treat pEC50 as minus the base-10 logarithm of the molar concentration.

[
  {
    "COMPOUND": "CC(C)n1c(=O)c(C(=O)NC2CC3CCC(C2)N3CCCCCCO)cc2ccccc21 (centres unmarked) [Compound 8, hydrochloride]",
    "pEC50": 7.21
  },
  {
    "COMPOUND": "CC(C)n1c(=O)c(C(=O)O[C@H]2C[C@H]3CC[C@@H](C2)N3CCN2CCOCC2)cc2ccccc21 [Compound 47, dihydrochloride]",
    "pEC50": 7.51
  },
  {
    "COMPOUND": "CC(C)n1c(=O)c(C(=O)NC2CC3CCC(C2)N3CC2CCCCO2)cc2ccccc21 (centres unmarked) [Compound 22]",
    "pEC50": 7.62
  },
  {
    "COMPOUND": "CC(C)n1c(=O)c(C(=O)NC2CC3CCC(C2)N3CCCC(=O)O)cc2ccccc21 (centres unmarked) [Compound 28]",
    "pEC50": 7.04
  },
  {
    "COMPOUND": "CCOC(=O)CCCN1[C@@H]2CC[C@H]1C[C@@H](OC(=O)c1cc3ccccc3n(C(C)C)c1=O)C2 [Compound 51, hydrochloride]",
    "pEC50": 7.64
  }
]

Query: I'd like to know its pEC50. The compound in question is CCOCCN1[C@@H]2CC[C@H]1C[C@@H](OC(=O)c1cc3ccccc3n(C(C)C)c1=O)C2 [Compound 43, hydrochloride]
Reply: 7.82

Query: I'd like to know its pEC50. The compound in question is CC(C)n1c(=O)c(C(=O)NC2CC3CCC(C2)N3CCCCCO)cc2ccccc21 (centres unmarked) [Compound 7]
Reply: 7.51

Query: I'd like to know its pEC50. The compound in question is CC(C)n1c(=O)c(C(=O)O[C@H]2C[C@H]3CC[C@@H](C2)N3CCOc2ccccc2)cc2ccccc21 [Compound 49, hydrochloride]
Reply: 7.41

Query: I'd like to know its pEC50. The compound in question is CC(C)n1c(=O)c(C(=O)NC2CC3CCC(C2)N3CCS(=O)(=O)c2ccccc2)cc2ccccc21 (centres unmarked) [Compound 19]
Reply: 7.06

Query: I'd like to know its pEC50. The compound in question is CC(C)n1c(=O)c(C(=O)NC2CC3CCC(C2)N3CC(N)=O)cc2ccccc21 (centres unmarked) [Compound 34]
Reply: 7.21
